Data provenance is the supplement of paper PMC9112550.

tested on: Escherichia coli TOP10; assay: shrunken log2 fold change of peptide-encoding DNA abundance (4.5 h post-induction vs induction); higher = less antimicrobial activity (less host growth inhibition); conditions: time post-induction: 4.5 h; library: site-saturation at positions 5, 18, 19, 20
REPORTED PROPERTY: shrunken log2 fold change

Solved entries (count: 5):
{"SEQUENCE CHAIN": "RRIRARPPRLPRPRPRPNKGPRP", "shrunken log2 fold change": -0.0254}
{"SEQUENCE CHAIN": "RRIRDRPPRLPRPRPRPQGIPRP", "shrunken log2 fold change": -0.0548}
{"SEQUENCE CHAIN": "RRIRIRPPRLPRPRPRPAVQPRP", "shrunken log2 fold change": -0.107}
{"SEQUENCE CHAIN": "RRIRWRPPRLPRPRPRPSQIPRP", "shrunken log2 fold change": -0.165}
{"SEQUENCE CHAIN": "RRIRKRPPRLPRPRPRPNCLPRP", "shrunken log2 fold change": -0.0339}

Consider the sequence shown here: RRIRCRPPRLPRPRPRPKKEPRP What is its recorded shrunken log2 fold change?
0.00726

// same read-out, input: RRIRERPPRLPRPRPRPKWRPRP
-0.102

Here is the next sequence: RRIRCRPPRLPRPRPRPIGFPRP
0.129

Next sequence: RRIRERPPRLPRPRPRPRQLPRP
-0.0334

Quick one: RRIRFRPPRLPRPRPRPQFIPRP
-0.141

----------
system: Escherichia coli TOP10; experiment: shrunken log2 fold change of peptide-encoding DNA abundance (4.5 h post-induction vs induction); higher = less antimicrobial activity (less host growth inhibition); details: time post-induction: 4.5 h; library: site-saturation at positions 5, 18, 19, 20
Listed here are sequences together with their documented shrunken log2 fold change.
Give the value as a plain number.

Example sequences with recorded shrunken log2 fold change:
{"SEQUENCE CHAIN": "RRIRVRPPRLPRPRPRPLTWPRP", "REPORTED PROPERTY": "shrunken log2 fold change", "OBSERVED MEASUREMENT": -0.195}
{"SEQUENCE CHAIN": "RRIRVRPPRLPRPRPRPAWYPRP", "REPORTED PROPERTY": "shrunken log2 fold change", "OBSERVED MEASUREMENT": 0.0171}
{"SEQUENCE CHAIN": "RRIRWRPPRLPRPRPRPDIDPRP", "REPORTED PROPERTY": "shrunken log2 fold change", "OBSERVED MEASUREMENT": 0.546}
{"SEQUENCE CHAIN": "RRIRPRPPRLPRPRPRPPCTPRP", "REPORTED PROPERTY": "shrunken log2 fold change", "OBSERVED MEASUREMENT": 0.00476}
{"SEQUENCE CHAIN": "RRIRLRPPRLPRPRPRPHNWPRP", "REPORTED PROPERTY": "shrunken log2 fold change", "OBSERVED MEASUREMENT": -0.0581}
{"SEQUENCE CHAIN": "RRIRQRPPRLPRPRPRPFRDPRP", "REPORTED PROPERTY": "shrunken log2 fold change", "OBSERVED MEASUREMENT": -0.117}
{"SEQUENCE CHAIN": "RRIRTRPPRLPRPRPRPEDFPRP", "REPORTED PROPERTY": "shrunken log2 fold change", "OBSERVED MEASUREMENT": -0.00101}
{"SEQUENCE CHAIN": "RRIRMRPPRLPRPRPRPTWDPRP", "REPORTED PROPERTY": "shrunken log2 fold change", "OBSERVED MEASUREMENT": 0.762}

# context switch: different sequence, same shrunken log2 fold change
Entry under review: RRIRQRPPRLPRPRPRPFIHPRP . Reported shrunken log2 fold change?
-0.876

----------
system: Escherichia coli TOP10; assay: shrunken log2 fold change of peptide-encoding DNA abundance (4.5 h post-induction vs induction); higher = less antimicrobial activity (less host growth inhibition); details: time post-induction: 4.5 h; library: site-saturation at positions 5, 18, 19, 20
REPORTED PROPERTY: shrunken log2 fold change
Quick one: just the number, no unit, thanks!

Answered cases to consult:
{"SEQUENCE CHAIN": "RRIRVRPPRLPRPRPRPWMGPRP", "MEASURED TARGET": "Escherichia coli TOP10", "shrunken log2 fold change": -0.339}
{"SEQUENCE CHAIN": "RRIRARPPRLPRPRPRPRHFPRP", "MEASURED TARGET": "Escherichia coli TOP10", "shrunken log2 fold change": 0.157}
{"SEQUENCE CHAIN": "RRIRSRPPRLPRPRPRPLLIPRP", "MEASURED TARGET": "Escherichia coli TOP10", "shrunken log2 fold change": -0.0597}

// moving on: another record for shrunken log2 fold change
Bench note: what shrunken log2 fold change did RRIRFRPPRLPRPRPRPPPKPRP show?
1.58

----------
Listed next: entries and their corresponding shrunken log2 fold change.
tested on: Escherichia coli TOP10; assay: shrunken log2 fold change of peptide-encoding DNA abundance (4.5 h post-induction vs induction); higher = less antimicrobial activity (less host growth inhibition); conditions: time post-induction: 4.5 h; library: site-saturation at positions 5, 18, 19, 20
// return just the number, without any unit appended

Example entries and their recorded answers appear below.
{"SEQUENCE CHAIN": "RRIRFRPPRLPRPRPRPNLLPRP", "shrunken log2 fold change": -0.187}
{"SEQUENCE CHAIN": "RRIRARPPRLPRPRPRPAISPRP", "shrunken log2 fold change": 0.594}
{"SEQUENCE CHAIN": "RRIRKRPPRLPRPRPRPKGNPRP", "shrunken log2 fold change": 0.325}
{"SEQUENCE CHAIN": "RRIRFRPPRLPRPRPRPTGQPRP", "shrunken log2 fold change": 0.0488}
{"SEQUENCE CHAIN": "RRIRVRPPRLPRPRPRPTKFPRP", "shrunken log2 fold change": -0.248}
{"SEQUENCE CHAIN": "RRIRLRPPRLPRPRPRPGPAPRP", "shrunken log2 fold change": 0.972}

State the recorded shrunken log2 fold change for this entry: RRIRWRPPRLPRPRPRPEVIPRP
0.0286

----------
test system: Escherichia coli TOP10; assay: shrunken log2 fold change of peptide-encoding DNA abundance (4.5 h post-induction vs induction); higher = less antimicrobial activity (less host growth inhibition); details: time post-induction: 4.5 h; library: site-saturation at positions 5, 18, 19, 20
REPORTED PROPERTY: shrunken log2 fold change
No unit in the answer, please; the number alone is enough.

Some solved entries appear below for comparison.
{"SEQUENCE CHAIN": "RRIRMRPPRLPRPRPRPCGNPRP", "shrunken log2 fold change": 0.137}
{"SEQUENCE CHAIN": "RRIRWRPPRLPRPRPRPCGSPRP", "shrunken log2 fold change": -0.0157}
{"SEQUENCE CHAIN": "RRIRWRPPRLPRPRPRPWVYPRP", "shrunken log2 fold change": -0.384}
{"SEQUENCE CHAIN": "RRIRMRPPRLPRPRPRPFTAPRP", "shrunken log2 fold change": 0.245}

Proceed to the following item.
Find the recorded shrunken log2 fold change belonging to RRIRFRPPRLPRPRPRPWAIPRP and report it.
0.268

----------
test system: Escherichia coli TOP10; experiment: shrunken log2 fold change of peptide-encoding DNA abundance (4.5 h post-induction vs induction); higher = less antimicrobial activity (less host growth inhibition); settings: time post-induction: 4.5 h; library: site-saturation at positions 5, 18, 19, 20
In this section, each of the sequences is paired with its reported shrunken log2 fold change.
Kindly provide the number alone.

Consider the reported shrunken log2 fold change for these sequences:
{"SEQUENCE CHAIN": "RRIRCRPPRLPRPRPRPIRRPRP", "shrunken log2 fold change": 0.119}
{"SEQUENCE CHAIN": "RRIRDRPPRLPRPRPRPKKWPRP", "shrunken log2 fold change": -0.0255}
{"SEQUENCE CHAIN": "RRIRDRPPRLPRPRPRPYQWPRP", "shrunken log2 fold change": 0.0508}
{"SEQUENCE CHAIN": "RRIRKRPPRLPRPRPRPSFMPRP", "shrunken log2 fold change": 1.94}
{"SEQUENCE CHAIN": "RRIRERPPRLPRPRPRPLYLPRP", "shrunken log2 fold change": -0.77}

Can you look up the measured shrunken log2 fold change of RRIRRRPPRLPRPRPRPYYVPRP for me?
-0.427

Also need RRIRQRPPRLPRPRPRPAFMPRP , thanks.
-0.0902

----------
tested on: Escherichia coli TOP10; test: shrunken log2 fold change of peptide-encoding DNA abundance (4.5 h post-induction vs induction); higher = less antimicrobial activity (less host growth inhibition); details: time post-induction: 4.5 h; library: site-saturation at positions 5, 18, 19, 20;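 note: peptides expressed intracellularly from a pBAD plasmid library in pooled LB shake-flask culture, induced with 0.3% L-arabinose, DNA abundance read by NGS, three biological replicates, DESeq2 with apeglm shrinkage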
Label rule met when shrunken log2 fold change is at or above -0.002; otherwise label rule not met.

Here are 3 sequences together with their reported answers.
{"SEQUENCE CHAIN": "RRIRMRPPRLPRPRPRPALQPRP", "GROUP": "rule met"}
{"SEQUENCE CHAIN": "RRIRMRPPRLPRPRPRPLPWPRP", "GROUP": "rule met"}
{"SEQUENCE CHAIN": "RRIRSRPPRLPRPRPRPYWFPRP", "GROUP": "rule not met"}

In plain terms: is recorded shrunken log2 fold change at least -0.002 for RRIRGRPPRLPRPRPRPRNYPRP ?
rule met

// query: RRIRPRPPRLPRPRPRPDKMPRP
rule met

Now try RRIRGRPPRLPRPRPRPCLKPRP .
rule met

What about RRIRDRPPRLPRPRPRPHHMPRP ?
rule not met
